melting point reference

{"MOLECULE": "CCc1cccc(NC(=O)c2cnn(C)c2N)c1", "melting point": "168 to 170 °C"}
{"MOLECULE": "Cc1ccc2c(c1)c1c(OCC#N)cccc1n2Cc1ccccc1", "melting point": "188 °C"}
{"MOLECULE": "CCCC[C@@H](NC(=O)[C@H](Cc1ccc(O)cc1)NC(=O)OC(C)(C)C)C(=O)NCC(=O)Oc1c(Cl)c(Cl)c(Cl)c(Cl)c1Cl", "melting point": "175 to 177 °C"}
{"MOLECULE": "CC1C(C(=O)O)CC2CC1C2(C)C (single isomer, unassigned; (+))", "melting point": "128 °C"}
{"MOLECULE": "CCC(=O)C(=O)Nc1c(C)c(C)c2c(c1C)C(c1ccc(C(C)C)cc1)CO2 (centres undefined)", "melting point": "97 to 98 °C"}
{"MOLECULE": "O=C(Nc1ccccc1)N1CCC(c2nn(-c3ccccc3)c3cc(F)ccc23)CC1", "melting point": "163 to 165 °C"}
{"MOLECULE": "COc1ccc(OCc2c(C)cncc2C)c2[nH]c(C3CC3)nc12", "melting point": "152 to 155 °C"}
{"MOLECULE": "CC1(C=C(Cl)Cl)CN(C(=O)Nc2ccc(OC(F)(F)F)cc2)N=C1c1ccc(Cl)cc1 (centres undefined)", "melting point": "138 to 141 °C"}
{"MOLECULE": "CCOC(=O)C1=C(C)NC(=O)N(C(=O)OC(C)C)C1c1cccc([N+](=O)[O-])c1 (centres undefined)", "melting point": "128 to 129 °C"}
{"MOLECULE": "NCCSC(c1ccccc1)c1ccccc1", "melting point": "74 °C"}
{"MOLECULE": "CN(C)c1ccc(N(C)C(=O)Cn2c(-c3ccc(Cl)cc3)nc3cccnc32)cc1", "melting point": "152 to 155 °C"}
{"MOLECULE": "CN(C)CCCNS(=O)(=O)c1ccc(C(C)(C)c2cc(C(C)(C)CC(C)(C)C)cc(-n3nc4ccccc4n3)c2O)cc1", "melting point": "96 to 101 °C"}
{"MOLECULE": "COc1cn(-c2ccc(N3CCOCC3)cc2F)nc(-c2ccnn2-c2ccccc2)c1=O", "melting point": "226 to 228 °C"}
{"MOLECULE": "CCOC(=O)CCCCC(NS(=O)(=O)c1ccccc1)c1ccc2ccccc2c1 (centres undefined)", "melting point": "81 to 84 °C"}
{"MOLECULE": "COc1ccc2[nH]c(=O)c(=O)n(C)c2c1", "melting point": "310 °C"}
{"MOLECULE": "COC(=O)[C@H](Cc1ccc([N+](=O)[O-])cc1)NC(=O)c1ccccc1F", "melting point": "137 to 139 °C"}
{"MOLECULE": "CCCCOc1c(CNC(=O)OC(C)(C)C)n(CC(C)C)c(=O)c2ccc(NC(C)=O)cc12", "melting point": "174 to 175 °C"}
{"MOLECULE": "CCc1nc(Cl)c([N+](=O)[O-])c(NC2CC2)n1", "melting point": "61 to 62 °C"}
{"MOLECULE": "O=C(Nc1ccc(CP(=O)(O)O)cc1)C1=Cc2cc(C3CCCCC3)ccc2CC1", "melting point": "203 to 205 °C"}

Origin of measurements: a melting point compilation (Tetko et al.; mined from patent text by program, amines drawn as free bases though some values may be those of a salt)
